molecular target: T1, recombinant CD3D&E protein (human CD3-his tag) (human, UniProt P04234 22-105; P07766 23-126, limits assumed); experiment: SPR Biacore, Ab captured on Protein A;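 further: humanized antibodies on a Protein A chip, human CD3-his analyte flowed over in serial dilutions for 3 min, dissociation tracked 120–360 s on a Biacore T200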
T1 construct: Analyte in Biacore; also called CD3D&E-His; CD3d&ε-His
T1 sequence (P04234 22-105 limits assumed, chain 1 of 2): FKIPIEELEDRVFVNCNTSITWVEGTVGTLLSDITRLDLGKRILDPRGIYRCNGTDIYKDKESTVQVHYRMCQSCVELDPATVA
T1 sequence (P07766 23-126 limits assumed, chain 2 of 2): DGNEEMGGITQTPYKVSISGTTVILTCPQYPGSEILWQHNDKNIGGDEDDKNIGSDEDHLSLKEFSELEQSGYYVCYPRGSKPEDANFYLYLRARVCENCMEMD
Recorded measurements of kon, one per entry
MEASURED_QUANTITY: kon (M⁻¹ s⁻¹)

binder="Hu155A9B1-17 (antibody, V domains shown, humanized mAb) VH: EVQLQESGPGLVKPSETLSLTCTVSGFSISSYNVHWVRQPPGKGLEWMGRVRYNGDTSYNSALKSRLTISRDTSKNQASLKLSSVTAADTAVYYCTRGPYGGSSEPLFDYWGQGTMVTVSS VL: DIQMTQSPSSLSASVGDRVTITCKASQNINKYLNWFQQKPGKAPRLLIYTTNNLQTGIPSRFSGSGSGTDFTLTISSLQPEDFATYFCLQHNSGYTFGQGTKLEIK" reported_measurement=70400
binder="Hu153A6B1-10 (antibody, V domains shown, humanized mAb) VH: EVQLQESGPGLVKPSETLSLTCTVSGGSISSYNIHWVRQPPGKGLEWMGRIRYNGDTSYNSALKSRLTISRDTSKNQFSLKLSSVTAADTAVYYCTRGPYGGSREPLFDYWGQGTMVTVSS VL: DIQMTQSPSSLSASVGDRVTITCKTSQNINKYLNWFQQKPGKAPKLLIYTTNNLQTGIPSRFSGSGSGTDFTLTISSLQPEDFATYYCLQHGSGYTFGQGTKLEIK" reported_measurement=806000
binder="Hu192A7B9-8 (antibody, V domains shown, humanized mAb) VH: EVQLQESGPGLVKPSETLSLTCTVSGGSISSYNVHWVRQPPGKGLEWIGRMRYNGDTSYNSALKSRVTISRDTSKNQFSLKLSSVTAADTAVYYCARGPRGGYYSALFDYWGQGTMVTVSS VL: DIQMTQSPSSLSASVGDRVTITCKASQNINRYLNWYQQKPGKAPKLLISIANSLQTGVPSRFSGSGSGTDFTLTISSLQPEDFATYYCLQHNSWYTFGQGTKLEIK" reported_measurement=805000
